Measured pIC50 accompanies every entry in the list below.
- Test system: 885724-159-R-J1-PDC complex spheroid viability;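 note: spheroids exposed to agents for seven days before readout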
- assay comment: Anticancer human tumor 885724-159-R-J1-PDC patient-derived pancreatic adenocarcinoma cell line growth inhibition [GQUAD]
- recorded conditions: curve of first compound; second compound 3.16 µM
- Description: DNA G-quadruplex Stabilizer Agents in Combinations in Complex Spheroids A high-throughput screen of multi-cell type tumor spheroids was designed to identify active combinations of DNA G-quadruplex stabilizer agents and targeted small molecules. […] Compounds. […] If the clinical Cmax for an agent had not been determined, the highest concentration tested was 10 microM. […]
pIC50: −log10 of the molar value.

compound	pIC50
O=c1[nH]cc(F)c(=O)[nH]1 + CN(C)c1ccc(Nc2c3ccc(NC(=O)CCN4CCCC4)cc3nc3cc(NC(=O)CCN4CCCC4)ccc23)cc1	< 5.00

Challenge: Entry Cc1cccc(N(C)C(=O)C2C(O)CCN2c2nc(C)cc(C(F)(F)F)c2C#N)c1 (stereo unspecified) + Cc1cnc(CNC(=O)c2c(=O)c3ccc(N4CCCN(C)CC4)nc3n3c2sc2ccccc23)cn1 needs its pIC50 filled in; supply it.
Response given: < 5.00

Challenge: Using the record for Cn1ncnc1[C@H]1c2n[nH]c(=O)c3cc(F)cc(c23)N[C@@H]1c1ccc(F)cc1 + Cc1cnc(CNC(=O)c2c(=O)c3ccc(N4CCCN(C)CC4)nc3n3c2sc2ccccc23)cn1 , state its measured pIC50.
Response given: < 6.50

Challenge: Provide only the value of recorded pIC50 for Cc1[nH]c2ccccc2c1CCNCc1ccc(/C=C/C(=O)NO)cc1 + Cc1[nH]c2ccc(F)cc2c1-c1nc2c3cccnc3c3ncccc3c2[nH]1
Response given: > 9.00

Challenge: Give the measured pIC50 for O=C(c1cc(Cc2n[nH]c(=O)c3ccccc23)ccc1F)N1CCN(C(=O)C2CC2)CC1 + CN(C)c1ccc(Nc2c3ccc(NC(=O)CCN4CCCC4)cc3nc3cc(NC(=O)CCN4CCCC4)ccc23)cc1
Response given: < 5.00

Challenge: Consider the compound CC(=O)O[C@H]1C(=O)[C@@]2(C)[C@H]([C@H](OC(=O)c3ccccc3)[C@]3(O)C[C@H](OC(=O)[C@H](O)[C@@H](NC(=O)c4ccccc4)c4ccccc4)C(C)=C1C3(C)C)[C@]1(OC(C)=O)CO[C@@H]1C[C@@H]2O + CN(C)c1ccc(Nc2c3ccc(NC(=O)CCN4CCCC4)cc3nc3cc(NC(=O)CCN4CCCC4)ccc23)cc1 and give its recorded pIC50.
Response given: < 5.00
